Target: UniProt:Q96EB6
Sequence (Q96EB6 whole entry, the tested form may be a part): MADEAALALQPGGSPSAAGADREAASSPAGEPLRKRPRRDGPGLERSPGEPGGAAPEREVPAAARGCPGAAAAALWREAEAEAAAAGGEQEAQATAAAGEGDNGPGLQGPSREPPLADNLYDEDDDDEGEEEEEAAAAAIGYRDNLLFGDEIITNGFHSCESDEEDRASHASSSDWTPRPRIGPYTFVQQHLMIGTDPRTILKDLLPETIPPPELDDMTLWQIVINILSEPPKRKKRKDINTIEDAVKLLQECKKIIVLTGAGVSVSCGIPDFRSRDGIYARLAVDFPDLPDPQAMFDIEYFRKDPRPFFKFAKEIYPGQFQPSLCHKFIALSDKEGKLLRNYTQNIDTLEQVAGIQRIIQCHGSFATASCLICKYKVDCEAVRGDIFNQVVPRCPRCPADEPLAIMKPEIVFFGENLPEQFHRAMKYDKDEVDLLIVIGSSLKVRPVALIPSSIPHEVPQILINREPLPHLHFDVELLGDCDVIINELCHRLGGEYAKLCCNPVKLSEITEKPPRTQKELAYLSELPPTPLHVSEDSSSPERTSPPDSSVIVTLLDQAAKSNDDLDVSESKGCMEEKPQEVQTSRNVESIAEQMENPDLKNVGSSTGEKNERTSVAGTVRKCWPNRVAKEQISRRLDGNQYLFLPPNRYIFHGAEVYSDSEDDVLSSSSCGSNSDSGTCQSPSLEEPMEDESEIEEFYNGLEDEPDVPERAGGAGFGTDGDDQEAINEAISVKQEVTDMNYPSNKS
Assay: Substrate activity at human N-terminal His-tagged SIRT1 (183 to 664 residues) expressed in Escherichia coli at 50 uM measured after 2 hrs in presence of NAD+ and trypsin by fluorescence assay
*1 amine or outer side, *2 acyl side, *3 side chain or, on linkers, in order; H or OH if unused. Where a SMILES comes first, the peptide text is derived from it. The star is where a group is joined. AMC = Cc1cc(=O)oc2cc(N*)ccc12; Suc = O=C(CCC(=O)[*:2])[*:1]
Let's look at some molecules and their measured Activity.

CC(=O)NCCCC[C@H](NC(=O)[C@H](CCCNC(=N)N)NC(=O)[C@H](CO)NC(=O)[C@H](CC(N)=O)NC(C)=O)C(=O)Nc1ccc2c(C)cc(=O)oc2c1 (Ac-NSRK(Ac)-{AMC}); 1.21 RFU
CC(=O)N[C@@H](CO)C(=O)N[C@@H](CC(C)C)C(=O)NCC(=O)N[C@@H](CCCCNC(=O)CCC(=O)O)C(=O)Nc1ccc2c(C)cc(=O)oc2c1 (Ac-SLGK(Suc)-{AMC}); 1.05 RFU
CC[C@H](C)[C@H](NC(=O)[C@H](CC(C)C)NC(=O)[C@H](CCCNC(=N)N)NC(C)=O)C(=O)N[C@@H](CCCCNC(C)=O)C(=O)Nc1ccc2c(C)cc(=O)oc2c1 (Ac-RLIK(Ac)-{AMC}); 24.1 RFU
CC(=O)N[C@@H](Cc1cnc[nH]1)C(=O)N[C@@H](Cc1ccccc1)C(=O)N[C@@H](CO)C(=O)N[C@@H](CCCCNC(=O)CCC(=O)O)C(=O)Nc1ccc2c(C)cc(=O)oc2c1 (Ac-HFSK(Suc)-{AMC}); 0.69 RFU

Let us examine a further case.
q: Please give measured Activity of the following entry: CC(=O)NCCCC[C@H](NC(=O)[C@H](CO)NC(=O)[C@H](Cc1ccccc1)NC(=O)[C@H](CC(=O)O)NC(C)=O)C(=O)Nc1ccc2c(C)cc(=O)oc2c1 (Ac-DFSK(Ac)-{AMC})
a: 21.2 RFU

Value source: ChEMBL document CHEMBL4680222
